- assayed target: human MCH-1R (human, UniProt Q99705 1-353)
- Sequence (Q99705 whole entry): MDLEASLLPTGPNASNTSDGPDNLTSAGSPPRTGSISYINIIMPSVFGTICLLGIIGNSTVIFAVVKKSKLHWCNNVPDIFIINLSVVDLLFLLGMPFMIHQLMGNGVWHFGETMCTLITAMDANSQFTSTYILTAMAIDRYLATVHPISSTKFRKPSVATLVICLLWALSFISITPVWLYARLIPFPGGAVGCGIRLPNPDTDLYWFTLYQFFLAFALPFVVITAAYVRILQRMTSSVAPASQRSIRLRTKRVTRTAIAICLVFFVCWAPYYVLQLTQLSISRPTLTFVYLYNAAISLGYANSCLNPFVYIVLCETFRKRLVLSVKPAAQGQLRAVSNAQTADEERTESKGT
- experimental protocol: cell-based or functional assay
Positions of bridges follow the written chain, without caps; N, C: chain ends. Non-standard residues stand in square brackets, D forms with d. Cha = N[C@@H](CC1CCCCC1)C(=O)O
measurement kind: EC50, aequorin bioluminescence (nM)

binder="Ac-RCMLARVYRPC-NH2 (disulfide 2-11 (inferred)) [SEQ. ID. NO. 16 (Ala^10 analog of Ac-hMCH(6-16)-NH2)]" measurement_kind="EC50, aequorin bioluminescence" censoring_sign== assay_value=51
binder="Ac-RCMLPRVYRPC-NH2 (disulfide 2-11 (inferred)) [SEQ. ID. NO. 22 (Pro^10 analog of Ac-hMCH(6-16)-NH2)]" measurement_kind="EC50, aequorin bioluminescence" censoring_sign=> assay_value=10000
binder="Ac-RCMLSRVYRPC-NH2 (disulfide 2-11 (inferred), also called Ser^10 peptide) [SEQ. ID. NO. 26 (Ser^10 analog of Ac-hMCH(6-16)-NH2)]" measurement_kind="EC50, aequorin bioluminescence" censoring_sign== assay_value=130
binder="Ac-RCML[Cha]RVYRPC-NH2 (disulfide 2-11) [SEQ. ID. NO. 19 (Cha^10 analog of Ac-hMCH(6-16)-NH2)]" measurement_kind="EC50, aequorin bioluminescence" censoring_sign== assay_value=1200
binder="Ac-RCMLLRVYRPC-NH2 (disulfide 2-11 (inferred)) [SEQ. ID. NO. 17 (Leu^10 analog of Ac-hMCH(6-16)-NH2)]" measurement_kind="EC50, aequorin bioluminescence" censoring_sign== assay_value=32
binder="Ac-RCMLERVYRPC-NH2 (disulfide 2-11 (inferred), also called Glu^10 peptide) [SEQ. ID. NO. 28 (Glu^10 analog of Ac-hMCH(6-16)-NH2)]" measurement_kind="EC50, aequorin bioluminescence" censoring_sign=> assay_value=10000
binder="Ac-RCMLFRVYRPC-NH2 (disulfide 2-11 (inferred)) [SEQ. ID. NO. 20 (Phe^10 analog of Ac-hMCH(6-16)-NH2)]" measurement_kind="EC50, aequorin bioluminescence" censoring_sign== assay_value=66
binder="Ac-RCMLGRVYRPC-NH2 (disulfide 2-11 (inferred), also called ID; NO; parent compound) [Ac-hMCH(6-16)-NH2]" measurement_kind="EC50, aequorin bioluminescence" censoring_sign== assay_value=20
